Test system: IgG in the plasma of prostate cancer patients
Assay: ELISA for peptide-specific IgG in plasma of prostate cancer patients
Assay type: binding, human
Conditions: 10 prostate cancer patients; positive when OD more than 0.04
Entries and their measured Humoral response, Total (IgG-positive patients/patients tested) follow.

Test system IgG in the plasma of prostate cancer patients; read-out Humoral response, Total (IgG-positive patients/patients tested); what value for DYRYSQADAL (EZH2 725-734) [EZH2-725] ?
2/10

Test system IgG in the plasma of prostate cancer patients; read-out Humoral response, Total (IgG-positive patients/patients tested); what value for KYKELTEQQL (EZH2 243-252) [EZH2-243] ?
6/10

Test system IgG in the plasma of prostate cancer patients; read-out Humoral response, Total (IgG-positive patients/patients tested); what value for TYYDNFCAI (EZH2 446-454) [EZH2-446] ?
0/10

Test system IgG in the plasma of prostate cancer patients; read-out Humoral response, Total (IgG-positive patients/patients tested); what value for DFPTQVIPL (EZH2 90-98) [EZH2-90] ?
0/10

Test system IgG in the plasma of prostate cancer patients; read-out Humoral response, Total (IgG-positive patients/patients tested); what value for KYMCSFLFNL (EZH2 660-669) [EZH2-660] ?
2/10

Test system IgG in the plasma of prostate cancer patients; read-out Humoral response, Total (IgG-positive patients/patients tested); what value for IFVELVNAL (EZH2 170-178) [EZH2-170] ?
1/10

Test system IgG in the plasma of prostate cancer patients; read-out Humoral response, Total (IgG-positive patients/patients tested); what value for NFMVEDETVL (EZH2 119-128) [EZH2-119] ?
1/10
